Just for reference, ChEMBL document CHEMBL1909294 is where these values come from.

# Tested on: Hepatotoxicity
# stated-conditions: Liver; also: call rule not given here
value-type: HepSE_cholelithiasis
Give a plain numeric answer without units written out.

A selection of reference data follows.
CN1[C@@H]2CC[C@H]1C[C@@H](OC(=O)C(CO)c1ccccc1)C2 (stereo partly drawn) ... 0
Cc1cccc(Nc2ccccc2C(=O)O)c1C ... 0
COc1cc(Br)c(C[N+]2(CCOCCC3CCC4CC3C4(C)C)CCOCC2)cc1OC.[Br-] (stereo not drawn) [PINAVERIUM BROMIDE] ... 0
CC(=O)O ... 0
CC(C)NCC(O)COc1ccc(CCOCC2CC2)cc1 (stereo not drawn) ... 0
Brc1c(NC2=NCCN2)ccc2nccnc12 ... 0
O=C1CN(/N=C/c2ccc([N+](=O)[O-])o2)C(=O)N1 ... 0
O=C(O)c1cc(-c2ccc(F)cc2F)ccc1O ... 0
CCc1cc(C(N)=S)ccn1 [ETHIONAMIDE] ... 0
N[C@@H]1C[C@H]1c1ccccc1.N[C@H]1C[C@@H]1c1ccccc1 ... 0

The measured HepSE_cholelithiasis associated with `O=C(O)CN(CCN(CC(=O)O)CC(=O)O)CC(=O)O` reads 0

The measured HepSE_cholelithiasis associated with `CN1CCC[C@H]1c1cccnc1` reads 0

The measured HepSE_cholelithiasis associated with `COc1ccc2c3c1O[C@H]1C(=O)CC[C@@]4(O)[C@@H](C2)N(C)CC[C@]314` reads 0

The measured HepSE_cholelithiasis associated with O=C(O)O [BICARBONATE] reads 0

The measured HepSE_cholelithiasis associated with `CNCCCC12CCC(c3ccccc31)c1ccccc12` reads 0

The measured HepSE_cholelithiasis associated with `COc1cc(Cc2cnc(N)nc2N)cc(OC)c1OC` reads 0

The measured HepSE_cholelithiasis associated with `Nc1ccc(S(=O)(=O)c2ccc(N)cc2)cc1` reads 0

The measured HepSE_cholelithiasis associated with OC(CCN1CCCCC1)(c1ccccc1)C1CCCCC1 (stereo not drawn) reads 0

The measured HepSE_cholelithiasis associated with `COc1ccc2cc([C@H](C)C(=O)O)ccc2c1` reads 1

----------
Below: a set of entries, each annotated with reported HepSE_hepatitis.
# Test system: Hepatotoxicity
Give a plain numeric answer without units written out.

A selection of reference data follows.
NC(=O)C(c1ccccc1)(c1ccccc1)[C@@H]1CCN(CCc2ccc3c(c2)CCO3)C1 [DARIFENACIN] ... 0
Nc1nc2ccc(OC(F)(F)F)cc2s1 [RILUZOLE] ... 1
[Li] [LITHIUM] ... 0
CC1=NS(=O)(=O)c2cc(Cl)ccc2N1 [DIAZOXIDE] ... 0
Nc1cccc2c1CN(C1CCC(=O)NC1=O)C2=O (stereo not drawn) [LENALIDOMIDE] ... 0

The measured HepSE_hepatitis associated with CCOC(=O)[C@H](CCc1ccccc1)N[C@@H](C)C(=O)N1[C@H](C(=O)O)C[C@H]2CCCC[C@@H]21 [TRANDOLAPRIL] reads 1

The measured HepSE_hepatitis associated with CC12CC3CC(C)(C1)CC(N)(C3)C2 [MEMANTINE] reads 1

The measured HepSE_hepatitis associated with CC(C)[C@H](N)C(=O)OCC(CO)OCn1cnc2c(=O)nc(N)[nH]c21 (stereo partly drawn) [VALGANCICLOVIR] reads 1

The measured HepSE_hepatitis associated with CN(CCOc1ccc(CC2SC(=O)NC2=O)cc1)c1ccccn1 (stereo not drawn) [ROSIGLITAZONE] reads 1

The measured HepSE_hepatitis associated with CN1C[C@H](C(=O)N[C@]2(C)O[C@@]3(O)[C@@H]4CCCN4C(=O)[C@H](Cc4ccccc4)N3C2=O)C[C@@H]2c3cccc4[nH]cc(c34)C[C@H]21 [DIHYDROERGOTAMINE] reads 0
